method.summary: Hydrophobicity by retention in analytical RP-HPLC (% MeCN at peak elution)
Assay type: physicochemical
study.conditions: Phenomenex Aeris Peptide XB-C18 column; gradient 0→60% B during 15 min
observed.property: % MeCN at Elution, Aeris Peptide (% MeCN)
Give the value, in units of % MeCN, as a plain number.

INSERT INTO measurements (compound, reported) VALUES
  ('NCCCC[C@H](NC(=O)CCN(Cc1ccc(F)cc1)C(=O)[C@H](CCCCN)NC(=O)CCN(Cc1ccc(F)cc1)C(=O)[C@H](CCCCN)NC(=O)CCOCCOCCOCCOCCOCCOCCNC(=O)CCN(Cc1ccc(F)cc1)C(=O)[C@H](CCCCN)NC(=O)CCN(Cc1ccc(F)cc1)C(=O)[C@H](CCCCN)NC(=O)CCN(Cc1ccc(F)cc1)C(=O)[C@@H](N)CCCCN)C(=O)N(CCC(N)=O)Cc1ccc(F)cc1 [Compound 10, H-[X]3-sPEG6-[X]3-NH2]', 40.3);

Lab note: measured % MeCN at Elution, Aeris Peptide of NCCCC[C@H](NC(=O)CCN(Cc1ccc(F)cc1)C(=O)[C@H](CCCCN)NC(=O)CCN(Cc1ccc(F)cc1)C(=O)[C@H](CCCCN)NC(=O)COCCNC(=O)CCN(Cc1ccc(F)cc1)C(=O)[C@H](CCCCN)NC(=O)CCN(Cc1ccc(F)cc1)C(=O)[C@H](CCCCN)NC(=O)CCN(Cc1ccc(F)cc1)C(=O)[C@@H](N)CCCCN)C(=O)N(CCC(N)=O)Cc1ccc(F)cc1 [Compound 6, H-[X]3-sPEG1-[X]3-NH2] was 39.2

% MeCN at Elution, Aeris Peptide in this record for NCCCC[C@H](NC(=O)CCN(Cc1ccc(F)cc1)C(=O)[C@H](CCCCN)NC(=O)CCN(Cc1ccc(F)cc1)C(=O)[C@H](CCCCN)NC(=O)COCCN)C(=O)N(CCC(=O)NCCOCC(=O)N[C@@H](CCCCN)C(=O)N(CCC(=O)N[C@@H](CCCCN)C(=O)N(CCC(=O)N[C@@H](CCCCN)C(=O)N(CCC(=O)NCCOCC(N)=O)Cc1ccc(F)cc1)Cc1ccc(F)cc1)Cc1ccc(F)cc1)Cc1ccc(F)cc1 [Compound 11, H-sPEG1-[X]3-sPEG1-[X]3-sPEG1-NH2] : 38.7

Field % MeCN at Elution, Aeris Peptide (entry NCCCC[C@H](NC(=O)CCN(Cc1ccc(F)cc1)C(=O)[C@H](CCCCN)NC(=O)COCCOCCNC(=O)CCN(Cc1ccc(F)cc1)C(=O)[C@H](CCCCN)NC(=O)CCN(Cc1ccc(F)cc1)C(=O)[C@H](CCCCN)NC(=O)COCCOCCNC(=O)CCN(Cc1ccc(F)cc1)C(=O)[C@H](CCCCN)NC(=O)CCN(Cc1ccc(F)cc1)C(=O)[C@@H](N)CCCCN)C(=O)N(CCC(N)=O)Cc1ccc(F)cc1 [Compound 16, H-[X]2-sPEG2-[X]2-sPEG2-[X]2-NH2] ) reads 39.4
